// provenance: PubChem BioAssay (NCI)

# Test system: MCF7 breast
# ASSAY EXPLANATION: NCI-60 one-dose screen, 48 h
# CONDITION INFO: 10 µM unless noted
This is part of a sample that, as a whole, favours compounds with a hit. Of some 83,000 tested, about 20% had one in any assay. Active and inactive are the calls of the source. Rule for the calls: active = growth percent below 10; inactive = the rest.
Output constraint: value belongs to active, inactive

Could you kindly confirm the outcome this assay logged for c1ccc2c(NCCCN3CCN(CCCNc4c5ccccc5nc5ccccc45)CC3)c3ccccc3nc2c1 ?
active

Now try CCOC(=O)/C(C)=C\c1ccc(OC)c(OC)c1 .
inactive

Now try O=C(O)c1ccc(OCc2ccccc2)cc1 .
inactive

Now try CCOC(=N)CC(=O)Nc1cccc(C)c1Cl .
inactive

Now try CC(=O)NC(CCc1ccc(Cl)c(Cl)c1)c1cccc(O)c(=O)c1 (centres undefined) .
inactive

Now try O=[N+]([O-])c1c(Cl)ncnc1Cl .
inactive

Now try NNc1ncccn1 .
inactive

Now try Cc1cc(C(=O)NN)c(C#N)c(=O)[nH]1 .
inactive

Now try CCOC(=O)c1cc(Cl)c(O)c(Cl)c1 .
inactive

Now try CCOC(=O)c1c(C)[nH]c(C)c1C=O .
inactive

Now try c1cc(CNCCNCc2ccncc2)ccn1 .
inactive

Now try CCC(/C=C\C(C)=O)CC .
inactive

Now try CCOc1ccccc1NC(=O)CCl .
inactive

Now try C=COC(=O)CCOCC(CC)CCCC (centres undefined) .
inactive

* * *

Record form. Attribute: growth. Fill in for each entry.
# Test system: K-562 leukemia
# ASSAY EXPLANATION: NCI-60 one-dose screen, 48 h (100 = growth as untreated, 0 = no growth, -100 = all killed)
# CONDITION INFO: 10 µM unless noted
This is part of a sample that, as a whole, favours compounds with a hit. Of some 83,000 tested, about 20% had one in any assay. Activity calls are given as the source filed them. The calls were made as follows: active = growth percent below 10; inactive = the rest.

Need growth, item CCNc1ccc2ccccc2c1N=Nc1ccc(N=Nc2ccccc2)cc1
125% (inactive)

Now try C/C(=N\O)c1ccccn1 .
106% (inactive)

Now try Cc1ccccc1CC(N)C(=O)O (configuration not stated) .
115% (inactive)

Now try COC1OC(C(COC(C)=O)OC(C)=O)C(OC(C)=O)C(OC(C)=O)C1OC(C)=O (configuration not stated) .
119% (inactive)

Now try O=C1NC(=O)C(c2ccccc2)O1 (configuration not stated) .
92.6% (inactive)

Now try O=[n+]1ccn([O-])c2ccccc21 .
109% (inactive)

Now try CC1(C)CCC(C)(C)NC(=S)N1 .
103% (inactive)

* * *

# Test system: SF-539 CNS
# ASSAY EXPLANATION: NCI-60 one-dose screen, 48 h (100 = growth as untreated, 0 = no growth, -100 = all killed)
# CONDITION INFO: 10 µM unless noted
About 83,000 compounds went through this panel and 20% of them were active in at least one assay; those are over-represented in the sample as a whole.
PARAMETER: growth (%)
Answer with a number only, understood to be in %.

Need growth, item Clc1ccc(C(SCc2ccccc2)SCc2ccccc2)cc1
97.2

Now try Nc1cc2ccccc2c(O)c1O .
16.2

Now try C=C(C)COc1ccc(C(C)(C)C)cc1 .
102

Now try CCc1ccccc1C(=O)N(CC)CC .
94.9

Now try C/C(=N\Nc1ccc([N+](=O)[O-])cc1[N+](=O)[O-])c1ccc(Br)cc1 .
106

Now try O=C(O)c1ccc([N+](=O)[O-])cc1S(=O)(=O)O .
107

Now try CC(=O)CSc1ncnc2nc[nH]c12 .
94.8

Now try COc1cc(C(=O)NC(=S)NCc2ccncc2)cc(OC)c1OC .
95.8

Now try CC(=O)C[n+]1ccc(C)cc1Sc1ccccc1C .
88.5

Now try CCOC(=O)c1ccc(Nc2sc(C(=O)c3ccc(Br)cc3)c(N)c2C#N)cc1 .
-1.74

Now try CC1CN(CCO)CC(C)O1 (stereo not drawn) .
98.4

Now try CC(C)C(C)(C)C(=O)C(C)(C)C(C)(C)C .
98.8

Now try CCC(C)c1c(N)n(S(=O)(=O)c2ccc(C)cc2)oc1=O (stereo not drawn) .
96.6
